system: Caco-2; experiment: drug sensitivity score (DSS) for viability; higher = more toxic; extreme values may be limits of the assay; details: 72 h
quantity.kind: drug sensitivity score

Here's what some known entries look like.
Challenge: Any idea what its drug sensitivity score is? The molecule is CCCC[P+](CCCC)(CCCC)Cc1ccc(NC(=O)[C@H](Cc2ccc3ccccc3c2)N/C(=N/C2CCCCC2)NC2CCCCC2)cc1
Response given: 0.4

Challenge: One more molecule: CN(C)[C@@H](CCOc1cccc2ccccc12)c1ccccc1 [dapoxetine]
Response given: 0

Challenge: Next up: CC[C@H](C)[C@@H]1NC(=O)[C@H](Cc2ccc(OC)cc2)NC(=O)CCCSC[C@@H](C(=O)N2CCC[C@H]2C(=O)N[C@@H](CC(C)C)C(=O)NCC(N)=O)NC(=O)[C@H](CC(N)=O)NC(=O)[C@H](CCC(N)=O)NC1=O [carbetocin]
Response given: 0.3

Provide drug sensitivity score values for the following items, in order.
1. C[C@@]1(O)[C@H](O)[C@@H](CO)O[C@H]1n1cnc2c(NC3CCCC3)nc(Cl)nc21 [2'-MeCCPA]
2. C#Cc1cccc(Nc2ncnc3cc(OCCOC)c(OCCOC)cc23)c1 [erlotinib]
3. COc1ccc2c3c([nH]c2c1)[C@H](CC(C)C)N1C(=O)[C@H](CCC(=O)OC(C)(C)C)NC(=O)[C@@H]1C3 [Ko143]
4. COc1cccc(CCc2ccccc2OCC[C@@H]2C[C@@H](O)CN2C)c1

Response given:
0
4.7
0
1

----------
test system: A549-ACE2; experiment: drug-induced phospholipidosis relative to tamoxifen; higher = more phospholipidosis; details: 0.833333 µM; 24 h
quantity.kind: drug-induced phospholipidosis
Please give the number followed by its unit.

Challenge: Can you look up the measured drug-induced phospholipidosis of CC[C@@H](C)CNCC(=O)N1CCc2sccc2[C@@H]1COc1cccc(C)c1 for me?
Response given: 9.84%

Dear colleague, could you send me drug-induced phospholipidosis for each of the items below? Thanks.
1. CCN(CC)CCOC(=O)C1(C2CCCCC2)CCCCC1
2. Cc1c(-c2ccc(O)cc2)n(Cc2ccc(OCCN3CCCCCC3)cc2)c2ccc(O)cc12
3. COc1cccc(CCc2ccccc2OCC[C@@H]2C[C@@H](O)CN2C)c1

Response given:
1.82%
6.49%
6.59%

----------
Give measured cell viability for each item. Keep answers brief.
system: U2OS; assay: cell viability relative to DMSO; higher = less toxic; details: 72 h; 100 nM
Answers are plain numbers, in %.

Challenge: I'd like to know its cell viability. The compound in question is Fc1ccc(Cl)cc1-c1nc(Nc2ccncc2)c2nccnc2n1
Response given: 96.5

Challenge: Another compound to look at: COc1cccc2c1C(=O)c1c(O)c3c(c(O)c1C2=O)C[C@@](O)(C(=O)CO)C[C@@H]3O[C@H]1C[C@H](N2CCO[C@H](OC)C2)[C@H](O)[C@H](C)O1
Response given: 0.9

Challenge: Queued: CCN(CC)CCOc1ccc2c(c1)C(=O)c1cc(OCCN(CC)CC)ccc1-2
Response given: 100

Challenge: Entry to check: OCc1cccnc1 [nicotinyl-alcohol-tartrate]
Response given: 96.7

Challenge: Same lookup for O=C(O)c1ccc(CN2CCC(CN[C@@H]3C[C@H]3c3ccccc3)CC2)cc1 , please.
Response given: 95.8

Required: cell viability, one value per compound below.
1. C[C@@H]1CCN(C(=O)CC#N)C[C@@H]1N(C)c1ncnc2[nH]ccc12
2. CCOc1ccc(-c2nc(-c3cccc4c3CCC4NCCO)no2)cc1OCC (configuration not stated)
3. CCC(=O)c1cc(-c2ccc(Cl)cc2)n(-c2ccc(S(N)(=O)=O)cc2)c1C
4. C=C(CC)C(=O)c1ccc(OCC(=O)O)c(Cl)c1Cl
5. Cc1[nH]nc(C(F)(F)F)c1Cc1sc2c(c1C(=O)N1C[C@](C)(O)CO1)c(=O)n(C)c(=O)n2C(C)C

Response given:
101
103
99.3
97.8
89

Items follow; give cell viability for each.
1. Clc1ccc(N/N=C(\c2ccccc2)c2ccccn2)nc1
2. O=C(Nc1c(Cl)cncc1Cl)c1ccc(OC(F)F)c(OCC2CC2)c1
3. CC[C@H](C)[C@@H]1NC(=O)[C@H](Cc2ccc(OC)cc2)NC(=O)CCCSC[C@@H](C(=O)N2CCC[C@H]2C(=O)N[C@@H](CC(C)C)C(=O)NCC(N)=O)NC(=O)[C@H](CC(N)=O)NC(=O)[C@H](CCC(N)=O)NC1=O

Response given:
1: 95.6; 2: 94.2; 3: 98.4

Parameter requested: cell viability. Apply to each item below.
1. CCCCN(CCCC)CC(O)c1cc(Cl)cc2c1-c1ccc(Cl)cc1/C2=C/c1ccc(Cl)cc1 (configuration not stated)
2. Cc1cccc(Nc2cc(Cl)nc(SCC(=O)O)n2)c1C

Response given:
[103, 95.7]

# per-item lookup of cell viability; items listed below
1. COc1cc2c(Nc3ccc(NC(=O)c4ccccc4)cc3)ncnc2cc1OCCCN1CCOCC1
2. CCOc1ccccc1OC(c1ccccc1)C1CNCCO1 (configuration not stated)

Response given:
[101, 98.8]

----------
tested on: A549-ACE2; assay: drug-induced phospholipidosis relative to tamoxifen; higher = more phospholipidosis; details: 6.66667 µM; 24 h
Classification field: t = drug-induced phospholipidosis at or over 80%; f = drug-induced phospholipidosis under 80%.

# count of solved cases: 2
Challenge: Test whether the molecule CCN(CC)CCOc1ccc2c(c1)C(=O)c1cc(OCCN(CC)CC)ccc1-2 records drug-induced phospholipidosis of 80% or higher.
Response given: f

Challenge: Ok, now CC[C@@H](C)CNCC(=O)N1CCc2sccc2[C@@H]1COc1cccc(C)c1
Response given: t

Moving on to the next molecule.
Challenge: Answer whether drug-induced phospholipidosis of O=C(Nc1ccc(-c2ccncc2)cc1)N[C@H](CO)c1ccccc1 is greater than or equal to 80%.
Response given: f

----------
Would you mind telling me the reported drug sensitivity score of each entry?
tested on: Vero E6; assay: drug sensitivity score (DSS) for viability; higher = more toxic; extreme values may be limits of the assay; settings: 72 h
Give bare numbers.

Observe how each entry below is paired with its result.
Challenge: Recorded drug sensitivity score for Nc1ccc(-c2nc3ccc(-c4nc5ccc(N)cc5[nH]4)cc3[nH]2)cc1 [Ro-90-7501] , please?
Response given: 0

Challenge: Moving on to the next molecule: CCN(CC)CCOC(=O)c1cc(Cl)c(N)cc1OC [SDZ-205-557]
Response given: 0

Challenge: Field entry: CCOc1ccccc1OC(c1ccccc1)C1CNCCO1 (stereo not given) [reboxetine]
Response given: 0

Challenge: Now consider O=C(O)c1ccc(CN2CCC(CN[C@@H]3C[C@H]3c3ccccc3)CC2)cc1 and answer again.
Response given: 0

Next up:
Challenge: I have this molecule here, COc1ccc2c3c([nH]c2c1)[C@H](CC(C)C)N1C(=O)[C@H](CCC(=O)OC(C)(C)C)NC(=O)[C@@H]1C3 [Ko143] , and I need its recorded drug sensitivity score.
Response given: 0

----------
test system: Calu-3; assay: cell viability relative to DMSO; higher = less toxic; details: 72 h; 10 nM
quantity.kind: cell viability (%)
One number for each entry, in %.

Below, each entry is followed by its recorded cell viability result.
Challenge: Fill in: cell viability of O=c1[nH]c2ccc(Cl)cc2c(N[C@@H]2CN3CCC2CC3)c1-c1nc2ccccc2[nH]1 is ___
Response given: 91.8

Challenge: What do you have for C[C@@H](O)[C@H]1C(=O)N2C(C(=O)O)=C(S[C@@H]3CN[C@H](C(=O)Nc4cccc(C(=O)O)c4)C3)[C@H](C)[C@H]12 ?
Response given: 99.7

# batch: return cell viability for each of the 6 compounds below
1. CCCCC(=O)N(Cc1ccc(-c2ccccc2-c2nnn[nH]2)cc1)[C@H](C(=O)O)C(C)C
2. CCCCc1ccc(NS(=O)(=O)c2ccc(F)cc2)cc1
3. COc1ncc(-c2ccc3c(Nc4cc(Oc5cc(F)cc(F)c5)cc(C(=O)O)c4)c(S(=O)(=O)NC4CC4)cnc3c2)c(OC)n1
4. COCCNC(=O)Cn1cnc([N+](=O)[O-])n1
5. N[C@@H](Cc1c[nH]c2ccccc12)C(=O)O
6. CCN(CC)Cc1cc(Nc2ccnc3cc(Cl)ccc23)ccc1O

Response given:
1. 108
2. 87.6
3. 107
4. 106
5. 97.1
6. 110

----------
For each of the compounds below, state its cell viability.
system: HepG2; assay: cell viability relative to DMSO; higher = less toxic; conditions: 72 h; 1000 nM
One number for each entry, in %.

Example results:
Challenge: Any idea what cell viability was measured for C[C@@]1(O)[C@H](O)[C@@H](CO)O[C@H]1n1cnc2c(NC3CCCC3)nc(Cl)nc21 [2'-MeCCPA] ?
Response given: 97.7

Challenge: Next entry: CCc1cc2c(c(CC)n1)CCC(=O)N2Cc1ccc(-c2ccccc2-c2nnn[nH]2)cc1 [ZD-7155]
Response given: 99.6

Challenge: Next: CC(C)c1noc(N2CCC(COc3ccc(-c4ccc(S(C)(=O)=O)cc4)nc3)CC2)n1
Response given: 97.3

Challenge: // query: Cc1cc(Nc2ncnc3ccc(-c4ccc(CNCCS(C)(=O)=O)o4)cc23)ccc1Oc1ccn2ncnc2c1 [HER2-Inhibitor-1]
Response given: 89.1

Challenge: Same again, this time with O=c1[nH]c2ccc(Cl)cc2c(N[C@@H]2CN3CCC2CC3)c1-c1nc2ccccc2[nH]1 [CHIR-124]
Response given: 36.7

Challenge: And what about the compound Cc1ccnc(NS(=O)(=O)c2ccc(N)cc2)n1 [sulfamerazine] ?
Response given: 109

Challenge: Another: Cc1cc(I)ccc1Nc1c(C(=O)NOCC2CC2)cc(F)c(F)c1F
Response given: 55.5

***
Challenge: Recorded cell viability of C=CC(C)(C)c1cc(/C=C/C(=O)c2ccc(O)cc2)c(OC)cc1O [licochalcone-A] , please.
Response given: 99.2
